B1: TPR 5TU (parent)
chain: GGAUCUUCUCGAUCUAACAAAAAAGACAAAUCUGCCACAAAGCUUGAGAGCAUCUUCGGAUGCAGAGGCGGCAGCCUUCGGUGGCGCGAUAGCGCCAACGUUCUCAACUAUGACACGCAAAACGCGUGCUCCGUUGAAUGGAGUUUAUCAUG

- Variants of: B1
- procedure_summary: polymerase ribozyme fitness, log enrichment relative to wild type (log ratio); higher = more active; in vitro selection for triplet polymerase activity
This sample holds only a part of the variants without activity.
quantity: polymerase ribozyme fitness (log ratio)

See these solved cases before continuing.
(Q) Param item = C38U C85U C95G C105A ; retrieve measured polymerase ribozyme fitness (log ratio).
(A) -3.93

(Q) Param item = C95U C123A C125U ; retrieve measured polymerase ribozyme fitness (log ratio).
(A) -0.165

(Q) Param item = U13C A21C A23C G92U A142G A147U ; retrieve measured polymerase ribozyme fitness (log ratio).
(A) ≤ -4.2

(Q) Param item = A22U C54G C95U ; retrieve measured polymerase ribozyme fitness (log ratio).
(A) -2.06

(Q) Param item = A52G G70C U78G C93G G141C ; retrieve measured polymerase ribozyme fitness (log ratio).
(A) ≤ -4.2

Alright, here's another variant for you.
(Q) Param item = C18A A28G A30C G46A G74C ; retrieve measured polymerase ribozyme fitness (log ratio).
(A) ≤ -4.2
